Source listed as ChEMBL document CHEMBL1126610.

biological target: Squalene synthase (Rattus norvegicus); experiment: Inhibitory activity against squalene synthetase in rat liver microsomal assay; assay type: microsomes
Assay readout: IC50 (µM)
Just the number in µM, nothing appended.

-- ask Please report the recorded IC50 for CC(C)=CCC/C(C)=C/CC/C(C)=C/C/N=C/N(C)CC/C=C(\C)CCC=C(C)C .
-- reply 6.9

* * *

target: Squalene synthase (Rattus norvegicus, UniProt Q02769); assay: Inhibitory activity against squalene synthetase in the presence of inorganic pyrophosphate in rat liver microsomal assay; format: microsomes
Sequence (Q02769 whole entry): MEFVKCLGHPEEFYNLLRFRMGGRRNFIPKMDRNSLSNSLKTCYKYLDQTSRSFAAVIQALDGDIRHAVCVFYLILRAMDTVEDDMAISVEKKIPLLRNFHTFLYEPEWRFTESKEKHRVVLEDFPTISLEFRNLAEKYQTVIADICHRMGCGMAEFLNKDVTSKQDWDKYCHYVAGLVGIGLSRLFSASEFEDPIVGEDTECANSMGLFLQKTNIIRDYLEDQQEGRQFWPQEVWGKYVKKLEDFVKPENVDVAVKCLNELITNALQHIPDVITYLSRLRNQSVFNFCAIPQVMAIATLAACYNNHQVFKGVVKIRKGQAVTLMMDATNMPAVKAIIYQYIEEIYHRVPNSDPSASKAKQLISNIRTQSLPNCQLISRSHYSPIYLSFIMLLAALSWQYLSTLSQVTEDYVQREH
Assay readout: IC50 (nM)
Please state the figure in nM; there is no need to write the unit.

-- ask Which value of IC50 has been reported for CC(C)=CCC/C(C)=C/CC/C(C)=C/C/N=C/N(C)CC/C=C(\C)CCC=C(C)C in the records?
-- reply 100
